Recorded values, source the supplement of paper PMC8699584.

tested on: Mv4-11; assay: cell viability relative to DMSO control (bortezomib = 0%); higher = less growth inhibition; settings: 10 nM; 72 h
measurement.kind: cell viability (%)
Number in %, nothing else.

q: Any idea what cell viability was measured for `NC(=O)c1ccc2nc(-c3ccc(Oc4ccc(Cl)cc4)cc3)[nH]c2c1` ?
a: 114

q: Any idea what cell viability was measured for `CN(C)C(=O)c1cc2cnc(Nc3ccc(N4CCNCC4)cn3)nc2n1C1CCCC1` ?
a: 113

q: Any idea what cell viability was measured for CN1C(=O)C(Cc2c[nH]c3ccccc23)NC1=S (centres undefined) ?
a: 93.4

q: Any idea what cell viability was measured for CN(C)CCCn1cc(C2=C(c3c[nH]c4ccccc34)C(=O)NC2=O)c2ccccc21 [Bisindolylmaleimide I] ?
a: 67.1

q: Any idea what cell viability was measured for Cc1ccc(S(=O)(=O)NC(=O)NN2CC3CCCC3C2)cc1 (centres undefined) [Gliclazide] ?
a: 113

q: Any idea what cell viability was measured for `CN1CCCN(C(=O)c2cccc(-c3ccc(/C=C4/C(=O)Nc5ccc(Cl)cc54)o3)c2)CC1` ?
a: 120

q: Any idea what cell viability was measured for CCn1c(N)c(C(=O)NC)c(=O)c2ccc(C#CC(C)(O)COC)nc21 (centres undefined) ?
a: 115

q: Any idea what cell viability was measured for `CCc1cc2c(cc1N1CCC(N3CCOCC3)CC1)C(C)(C)c1[nH]c3cc(C#N)ccc3c1C2=O` ?
a: 100

q: Any idea what cell viability was measured for `CNS(=O)(=O)C[C@H]1CC[C@H](N(C)c2[nH]cnc3nccc2-3)CC1` ?
a: 107

* * *

I'd be grateful if you could share measured cell viability for these entries.
system: Mv4-11; assay: cell viability relative to DMSO control (bortezomib = 0%); higher = less growth inhibition; settings: 10 nM; 72 h
Where a name gives a salt, the structure may show the parent alone.
Number in %, nothing else.

q: Any idea what cell viability was measured for CN1CC(O)C2=C/C(=N/NC(N)=O)C(=O)C=C21 (stereo not given) ?
a: 107

q: Any idea what cell viability was measured for `CCOc1cc(N2CCC(O)CC2)ccc1Nc1ncc2c(n1)N(C)c1ccccc1C(=O)N2C` ?
a: 98.8

q: Any idea what cell viability was measured for `CC(=O)Nc1nc(C)c(-c2ccc(Cl)c(S(=O)(=O)NCCO)c2)s1` ?
a: 97.8

q: Any idea what cell viability was measured for `NC(=O)c1ccccc1Nc1ccnc(Nc2cccc(O)c2)n1` ?
a: 89.2

q: Any idea what cell viability was measured for `CO[C@@H](C(=O)N1Cc2[nH]nc(NC(=O)c3ccc(N4CCN(C)CC4)cc3)c2C1)c1ccccc1` ?
a: 100

q: Any idea what cell viability was measured for `Nc1nccc(-c2c(-c3ccc(F)cc3)ncn2C2CCCCC2)n1` ?
a: 114

q: Any idea what cell viability was measured for `CC(C)c1[nH]nc(Cl)c1-c1ccnc(Nc2ccc(N3CCC(N(C)C)CC3)cn2)n1` ?
a: 112

q: Any idea what cell viability was measured for `CN(C)C/C=C/C(=O)Nc1ccc(C(=O)Nc2cccc(Nc3ncc(Cl)c(-c4c[nH]c5ccccc45)n3)c2)cc1` ?
a: 95.3

q: Any idea what cell viability was measured for `Cc1ccc(-n2nc(C(C)(C)C)cc2NC(=O)Nc2ccc(OCCN3CCOCC3)c3ccccc23)cc1` ?
a: 98.1

q: Any idea what cell viability was measured for O=C(Nc1ccc(-c2ccnc(Nc3ccc(N4CCOCC4)cc3)n2)cc1)C1CCCN1 (stereo not given) ?
a: 95.7

q: Any idea what cell viability was measured for O=S(=O)(c1cccc2cnccc12)N1CCCNCC1 [HA-1077 (hydrochloride)] ?
a: 112

q: Any idea what cell viability was measured for CC(=O)CC(c1ccccc1)c1c(O)c2ccccc2oc1=O (stereo not given) [Warfarin sodium] ?
a: 114

q: Any idea what cell viability was measured for Cc1ccc(NC(=O)c2ccc(CN3CCN(C)CC3)cc2)cc1Nc1nccc(-c2cccnc2)n1 [Imatinib (STI571)] ?
a: 97.2

q: Any idea what cell viability was measured for Cc1oncc1C(=O)Nc1ccc(C(F)(F)F)cc1 [Leflunomide] ?
a: 118

q: Any idea what cell viability was measured for `CC(C)(C)c1cc(C=C(C#N)C(N)=S)cc(C(C)(C)C)c1O` ?
a: 111

q: Any idea what cell viability was measured for COc1cc(Nc2ncc(F)c(Nc3ccc4c(n3)NC(=O)C(C)(C)O4)n2)cc(OC)c1OC [R406 free base] ?
a: 105

q: Any idea what cell viability was measured for `CCS(=O)(=O)c1cccc(-c2cc(C(=O)NC3CCN(C)CC3)c(C)c3[nH]c4ncc(C)cc4c23)c1` ?
a: 90.6

q: Any idea what cell viability was measured for `CN1CCN(S(=O)(=O)c2ccc(-c3cnc(N)c(C(=O)Nc4cccnc4)n3)cc2)CC1` ?
a: 100

q: Any idea what cell viability was measured for `CNC(=O)c1ccc(-c2cnc3ncc(Cc4ccc5ncccc5c4)n3n2)cc1F` ?
a: 108

q: Any idea what cell viability was measured for `C[C@@H](Oc1ccc2[nH]nc(/C=C/c3cnn(CCO)c3)c2c1)c1c(Cl)cncc1Cl` ?
a: 105

q: Any idea what cell viability was measured for CS(=O)(=O)CCNCc1ccc(-c2ccc3ncnc(Nc4ccc(OCc5cccc(F)c5)c(Cl)c4)c3c2)o1 [Lapatinib] ?
a: 103

q: Any idea what cell viability was measured for COc1ccc(C2CC(=O)c3c(O)cc(OC4OC(COC5OC(C)C(O)C(O)C5O)C(O)C(O)C4O)cc3O2)cc1OC (stereo not given) ?
a: 117

q: Any idea what cell viability was measured for `COc1cc(C(=O)N2CCC(N3CCN(C)CC3)CC2)ccc1Nc1ncc2c(n1)N(C)c1ccccc1C(=O)N2C` ?
a: 104

q: Any idea what cell viability was measured for `Cc1cn(-c2cc(NC(=O)c3ccc(C)c(Nc4nccc(-c5cccnc5)n4)c3)cc(C(F)(F)F)c2)cn1` ?
a: 108

q: Any idea what cell viability was measured for Cc1ccc(NC(=O)c2ccc(CN3CCN(C)CC3)cc2)cc1Nc1nccc(-c2cccnc2)n1 [Imatinib Mesylate (STI571)] ?
a: 106

q: Any idea what cell viability was measured for C[N+](C)(C)CC(=O)O [Betaine hydrochloride] ?
a: 101

q: Any idea what cell viability was measured for `N#Cc1cccc(-c2c[nH]c3ncnc(N4CCOCC4)c23)c1` ?
a: 100

q: Any idea what cell viability was measured for `Cn1cc(-c2ccc3nnc(Sc4ccc5ncccc5c4)n3n2)cn1` ?
a: 104

q: Any idea what cell viability was measured for `CCC(=O)N1CCN(c2ccc(-n3c(=O)ccc4cnc5ccc(-c6cnc7ccccc7c6)cc5c43)cc2C(F)(F)F)CC1` ?
a: 108

q: Any idea what cell viability was measured for `FC(F)(F)c1ccc(CNc2ccc(Cc3c[nH]c4ncc(Cl)cc34)cn2)cn1` ?
a: 105

q: Any idea what cell viability was measured for `CO[C@@H]1[C@H](N(C)C(=O)c2ccccc2)C[C@H]2O[C@]1(C)n1c3ccccc3c3c4c(c5c6ccccc6n2c5c31)C(=O)NC4` ?
a: 89

q: Any idea what cell viability was measured for `CSc1cccc(Nc2ncc3cc(-c4c(Cl)cccc4Cl)c(=O)n(C)c3n2)c1` ?
a: 101

q: Any idea what cell viability was measured for `O=C1Nc2cc(Br)ccc2/C1=C1/Nc2ccccc2/C1=N\O` ?
a: 91.4

q: Any idea what cell viability was measured for `CC1(C)CNc2cc(NC(=O)c3cccnc3NCc3ccncc3)ccc21` ?
a: 107

q: Any idea what cell viability was measured for `Cc1ncc(-c2ccnc(Nc3ccc(S(C)(=O)=O)cc3)n2)n1C(C)C` ?
a: 122

* * *

test system: Mv4-11; assay: cell viability relative to DMSO control (bortezomib = 0%); higher = less growth inhibition; settings: 10 nM; 72 h
Where a name gives a salt, the structure may show the parent alone.
measurement.kind: cell viability (%)
Number in %, nothing else.

q: Any idea what cell viability was measured for `Fc1ccc(-c2nc3n(c2-c2ccncc2)CCS3)cc1` ?
a: 98.2

q: Any idea what cell viability was measured for `COc1cc2ncnc(Nc3cccc(Cl)c3)c2cc1OC` ?
a: 108

q: Any idea what cell viability was measured for CNC(=O)c1cc(Oc2ccc(NC(=O)Nc3ccc(Cl)c(C(F)(F)F)c3)cc2)ccn1 [Sorafenib tosylate] ?
a: 69.2

q: Any idea what cell viability was measured for `Cc1ccc(C(=O)Nc2ccc(CN3CCN(C)CC3)c(C(F)(F)F)c2)cc1C#Cc1cnc2cccnn12` ?
a: 3.31

q: Any idea what cell viability was measured for `OCCn1cc(-c2cnc3nnn(Cc4ccc5ncccc5c4)c3n2)cn1` ?
a: 112

* * *

test system: Molm13; experiment: cell viability relative to DMSO control (bortezomib = 0%); higher = less growth inhibition; conditions: 10 nM; 72 h
Structures can show the parent of a compound that is named as a salt.
measurement.kind: cell viability (%)
Number in %, nothing else.

q: Any idea what cell viability was measured for COc1ccc(S(=O)(=O)Nc2ccccc2CN(C)C/C=C/c2ccc(Cl)cc2)cc1 [KN-92 (hydrochloride)] ?
a: 129

q: Any idea what cell viability was measured for `Oc1ccc(Nc2nc(-c3ccc(Cl)cc3)cs2)cc1` ?
a: 99.7

q: Any idea what cell viability was measured for `COc1cc2c(Nc3ccc(NC(=O)c4ccccc4)cc3)ncnc2cc1OCCCN1CCOCC1` ?
a: 87.8

q: Any idea what cell viability was measured for `COc1c(C)c(C(=O)c2ccc(N)c(C(=O)O)c2)n2ccccc12` ?
a: 107

q: Any idea what cell viability was measured for `CC(C)(C)c1nc2c3cc[nH]c(=O)c3c3cc(F)ccc3c2[nH]1` ?
a: 99.5

q: Any idea what cell viability was measured for N#C/C(=C\c1ccc(O)c(O)c1)C(=O)NCc1ccccc1 [AG-490 (Tyrphostin B42)] ?
a: 103

q: Any idea what cell viability was measured for `CS(=O)(=O)N1CCN(Cc2cc3nc(-c4cccc5[nH]ncc45)nc(N4CCOCC4)c3s2)CC1` ?
a: 89.9

q: Any idea what cell viability was measured for `C[C@@]1(C(=O)Nc2ccc(F)nc2)CCCN1c1nc(Nc2cc(C3CC3)n[nH]2)c2cccn2n1` ?
a: 117

q: Any idea what cell viability was measured for `COc1cc2ncnc(Sc3nnc(C)s3)c2cc1OC` ?
a: 127
